For each record, write down the corresponding clearance.
Experiment: Pharmacokinetic determination in rats (IV and PO, plasma, LCMS/MS)
Format: in vivo, SD rats
Details: rat, in vivo; IV, 1 mg/kg, male SD rats, overnight fasting, plasma; read-out: CL
Method: SD rats were used as test animals to study the pharmacokinetic behavior of the example compounds in rats (plasma) after oral administration. The example compounds of the present invention, made in house. 3 SD rats per group, male. Shanghai Jiesijie Experimental Animal Co., Ltd., animal production license number (SCXK (Shanghai) 2013-0006 N0.311620400001794). Formulation of a drug for oral administration: 10% Captisol in 50 mM citrate buffer pH 5.0. […]
Field format: number, assumed mL/min/kg, no unit text.

[in] Using the record for C#Cc1c(F)ccc2cc(O)cc(-c3nc4c5c(nc(OCC6(CN7CCC(=CF)CC7)CC6)nc5c3F)N3C[C@H]5CC[C@H](N5)[C@H]3[C@H](C)O4)c12 [Example 129] , state its measured clearance.
[out] 28.8

[in] Using the record for C#Cc1c(F)ccc2cc(O)cc(-c3nc4c5c(nc(OCC6(CN7CCC(=C(F)F)CC7)CC6)nc5c3F)N3C[C@H]5CC[C@H](N5)[C@H]3[C@H](CC)O4)c12 [Example 124] , state its measured clearance.
[out] 15

[in] Using the record for C#Cc1c(F)ccc2cc(O)cc(-c3nc4c5c(nc(OCC6(CN7CCC(=NOC)CC7)CC6)nc5c3F)N3C[C@H]5CC[C@H](N5)[C@H]3[C@H](C)O4)c12 [Example 35-1] , state its measured clearance.
[out] 29.2
